Experiment: viability loss with induced miR-34 in A549 – imaging, A549 dox-inducible miR-34, nuclei and caspase counts, primary screen (AID 1347080); note: test concentration not given here
Conditions: A549 miR-34 inducible, Hoechst nuclei count, 48 h; measured here: total cells without miR-34 induction
Outcome measure: cell count
One number for each entry.

Completed entries (count: 6):
Compound	cell count
O=C(Nc1cccc2cccnc12)c1ccc(N2C(=O)[C@@H]3[C@H](C2=O)[C@@H]2C=C[C@H]3C2)cc1	6550
CCCCCCCCCCCCCCCC(=O)NC(C)C	5500
O=C(/C=C/c1ccccc1)NC(NC(=S)Nc1cccc2cccnc12)C(Cl)(Cl)Cl (stereo unspecified)	4560
O=S(=O)(NO)c1ccccc1	5060
CCCCC/C=C\C/C=C\CCCCCCCC(=O)OCC(COC(=O)CCCCCCCCCCCCCCC)OC(=O)CCCCCCC/C=C\CCCCCCCC (stereo unspecified)	5790
CCCCC/C=C\C/C=C\C/C=C\C/C=C\CCCC(=O)NC[C@]1(C)CCC[C@]2(C)c3ccc(C(C)C)cc3CC[C@@H]12	5580

I'm hoping you can list cell count for every compound here, please.
1. CS(=O)(=O)N1CCc2c(-c3cnc(N)nc3)nc(N3CCOCC3)nc21
2. O=c1[nH]ccc2c(S(=O)(=O)N3CCCNCC3)cccc12
3. COCCOc1nc(-c2ccc(Cl)c(Cl)c2)n(-c2ccc(NC(=O)CCl)cc2)n1
4. CCCCC[C@](C)(O)/C=C/[C@H]1[C@H](O)CC(=O)[C@@H]1CCCCCCC(=O)O
5. COc1cc2c(cc1C(F)(F)F)N(C(=O)Nc1cc(F)cc(-c3cccnc3)c1)CC2
6. N[C@H](C(=O)O)c1ccc(O)c(C(=O)O)c1

Result:
3180
10300
3290
5720
6820
9760

Value sought for every listed compound: cell count.
1. NC(=O)CCC/C=C\C[C@@H]1[C@@H](/C=C/[C@@H](O)CCc2ccccc2)[C@H](O)C[C@@H]1O
2. Cc1nc(COP(=O)(O)O)cc(CN(CCN(CC(=O)O)Cc2cc(COP(=O)(O)O)nc(C)c2O)CC(=O)O)c1O.[Mn]
3. CCCCCCCCCCCC(=O)O
4. NC(C(=O)O)c1ccc(C(=O)O)c(C(=O)O)c1 (stereo unspecified)
5. CCCCC[C@H](O)/C=C/[C@H]1C=CC(=O)[C@@H]1CCCCCCC(=O)OCC

Result:
1: 6460; 2: 9050; 3: 5870; 4: 8760; 5: 5620

For each of the compounds below, state cell count.
1. CCC(=O)OCN1C(=O)C=CC1=O
2. C1CCC(NC(=NC2C3CC4CC(C3)CC2C4)N2CCOCC2)CC1 (stereo unspecified)
3. CN1CCC(c2c(O)cc(O)c3c(=O)cc(-c4ccccc4Cl)oc23)C1CO (stereo unspecified)
4. CCCCCCCC/C=C\CCCCCC(=O)O

Result:
1: 9660; 2: 5520; 3: 1670; 4: 5860
